Origin of the recorded values: patent US20240262892A1

# assay_target: T1, SARS-CoV-2 S1 protein NTD (N-terminal domain of spike protein of SARS-CoV-2) (SARS-CoV-2, UniProt P0DTC2 14-305)
# T1 construct: also called S1-NTD; NTD of S1 subunit
# experiment_summary: biolayer interferometry, ForteBio Octet RED96e, NTD 250 nM to 7.81 nM, 1:1 model
Assignment: determine reported pKd for the given binders.
One number for each entry, as −log10 of the molar value.

Worked set:
binder	recorded_number
Antibody 12-9 (antibody, V domains shown) VH: EVQLVESGGGLVKPGGSLRLSCAASEFTFSSYSMNWVRQAPGKGLEWVSSISSSGSDIYYADSVKGRFTISRDNAKKSLYLQMNSLRVEDTAVYYCATNGGAHSSTWSFYGMDVWGQGTTVTVSS VL: SYELTQPPSVSVSPGQTATITCSGDKLGDKYACWYQQRPGQSPVLVIYQDSKRPSGIPERFSGSNSGNTATLTIGGTQAMDEAAYFCQAWDSNTGVFGGGTKLTVL	7.78
Antibody 12-11 (antibody, V domains shown) VH: QVQVVQSGAEVKKPGASVKVSCKVSGYTLIEISIHWVRQAPGKGLEWMGGFDPEAGETIYAQKFQGRVTMTEDTSTDTAYMEVSSLRSEDTAVYYCATGPAIAAAETNWFDLWGQGTLVTVSS VL: QSALTQPASVSGSPGQSITISCTGTSSDVGSYNYVSWYQQHPGKAPKLMIYDVTKRPSGVPDRFSGSKSGNTASLTISGLQAEDEADYYCSSYTSSSTWVFGGGTKLTVL	8.24

Please examine the following record next.
Exam item: Which pKd value belongs to Antibody 12-17 (antibody, V domains shown) VH: EVQLVESGGGLVKPGGSLRLSCAASGFTLNSYSMNWVRQAPGKGLEWVSSISSTSSDIYYADSVKGRFTISRDNAKNSVDLQMNSLRAEDTAVYYCATNGGAHRNTWSFYGMDVWGQGTTVTVSS VL: SYELTQPPSVSVSPGQTASITCSGDKLGDKYASWYQQKPGQSPVLVIYQDTKRPSGIPERFSGSNSGNTVTLTISGTQAMDEADYYCQAWDSSTGVFGGGTKLTVL ?
Marked response: 8.26
